Test system: Escherichia coli TOP10;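 further: peptides expressed intracellularly from a pBAD plasmid library in pooled LB shake-flask culture, induced with 0.3% L-arabinose, DNA abundance read by NGS, three biological replicates, DESeq2 with apeglm shrinkage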
Assay: shrunken log2 fold change of peptide-encoding DNA abundance (4.5 h post-induction vs induction); higher = less antimicrobial activity (less host growth inhibition)
Settings: time post-induction: 4.5 h; library: site-saturation at positions 5, 18, 19, 20
assay_readout: shrunken log2 fold change
Answer field: number only, no words.

[ask] Give its shrunken log2 fold change value. Item: RRIRYRPPRLPRPRPRPISCPRP
[reply] -0.202

[ask] Give its shrunken log2 fold change value. Item: RRIRMRPPRLPRPRPRPSQGPRP
[reply] 0.179

[ask] Give its shrunken log2 fold change value. Item: RRIRIRPPRLPRPRPRPCIKPRP
[reply] -0.185

[ask] Give its shrunken log2 fold change value. Item: RRIRHRPPRLPRPRPRPTCDPRP
[reply] -0.011

[ask] Give its shrunken log2 fold change value. Item: RRIRYRPPRLPRPRPRPWGHPRP
[reply] -0.275

More entries:
[ask] Give its shrunken log2 fold change value. Item: RRIRMRPPRLPRPRPRPYWNPRP
[reply] -1.04

[ask] Give its shrunken log2 fold change value. Item: RRIRTRPPRLPRPRPRPLTQPRP
[reply] -0.309

[ask] Give its shrunken log2 fold change value. Item: RRIRWRPPRLPRPRPRPTFYPRP
[reply] -0.298

// data source = the supplement of paper PMC9112550
